Each entry below lists one item and its recorded melting point value.
Where a name gives a salt, the structure may show the parent alone.

### Prompt Look up melting point for this compound: COc1ccc(Cl)cc1[C@]1(F)C(=O)N(COC(=O)c2ccc(CN3CCOCC3)cc2)c2cc(C(F)(F)F)ccc21 (as salt: hydrochloride)
### Response 174 to 178 °C

### Prompt Look up melting point for this compound: COc1ccc(Cl)cc1[C@]1(F)C(=O)N(C(=O)NC(C)(C)C(=O)O)c2cc(C(F)(F)F)ccc21
### Response 107 to 110 °C

### Prompt Look up melting point for this compound: COc1ccc(Cl)cc1[C@]1(F)C(=O)N(C(=O)N[C@@H](C)C(=O)O)c2cc(C(F)(F)F)ccc21
### Response 103 to 107 °C
